What Ki was measured for each of the following?
# studyTarget: hVR1 (Homo sapiens (Human), UniProt Q8NER1)
# Sequence (Q8NER1 whole entry): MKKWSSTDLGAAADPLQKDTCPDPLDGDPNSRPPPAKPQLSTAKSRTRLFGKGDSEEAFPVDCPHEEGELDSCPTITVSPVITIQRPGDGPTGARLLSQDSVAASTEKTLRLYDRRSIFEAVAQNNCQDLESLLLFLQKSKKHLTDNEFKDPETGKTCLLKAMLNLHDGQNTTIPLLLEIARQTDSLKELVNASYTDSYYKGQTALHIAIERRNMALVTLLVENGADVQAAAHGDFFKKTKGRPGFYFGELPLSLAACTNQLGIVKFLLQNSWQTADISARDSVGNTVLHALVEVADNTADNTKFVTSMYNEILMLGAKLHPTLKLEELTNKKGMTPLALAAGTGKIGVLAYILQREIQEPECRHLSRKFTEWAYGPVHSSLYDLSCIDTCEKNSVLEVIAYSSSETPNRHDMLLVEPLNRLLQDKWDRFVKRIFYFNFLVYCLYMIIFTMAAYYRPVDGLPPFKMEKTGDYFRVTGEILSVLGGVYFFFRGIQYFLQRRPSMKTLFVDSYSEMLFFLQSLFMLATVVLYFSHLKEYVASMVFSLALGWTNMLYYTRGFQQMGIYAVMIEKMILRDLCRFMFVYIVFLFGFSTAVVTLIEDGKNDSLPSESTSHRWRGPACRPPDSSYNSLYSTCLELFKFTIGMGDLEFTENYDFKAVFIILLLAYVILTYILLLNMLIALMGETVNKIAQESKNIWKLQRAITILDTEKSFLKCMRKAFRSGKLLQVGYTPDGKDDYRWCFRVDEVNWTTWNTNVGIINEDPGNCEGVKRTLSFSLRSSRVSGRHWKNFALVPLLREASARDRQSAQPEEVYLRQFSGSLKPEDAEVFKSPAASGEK
# protocolNotes: FLIPR Ca2+ influx assay on CHO K1 cells transfected with the VR1 gene, capsaicin stimulus (method II)
# Type: cell-based
# measurementContext: capsaicin (Cap), read-out: Ki (human being) [nM] Cap
Write the answer as a number in nM, unit excluded.

Item CC(C(=O)NCc1cc(C(F)(F)F)nn1-c1cccc(Cl)c1)c1ccc(C(F)(F)F)c(F)c1 (centres unmarked) ; assay system hVR1 (Homo sapiens (Human), UniProt Q8NER1); Ki reported as 13.6

Item CC(C(=O)NCc1cc(C(C)(C)C)nn1C1CCCCC1)c1ccc(NS(C)(=O)=O)c(F)c1 (centres unmarked) ; assay system hVR1 (Homo sapiens (Human), UniProt Q8NER1); Ki reported as 21.6

Item CC(C(=O)NCc1cc(C(C)(C)C)nn1-c1cccc(Cl)c1)c1cc(F)c(NS(C)(=O)=O)c(F)c1 (centres unmarked) ; assay system hVR1 (Homo sapiens (Human), UniProt Q8NER1); Ki reported as 1.2

Item CC(C(=O)NCc1cc(C(C)(C)C)nn1-c1cccc(Cl)c1)c1ccc(N2CCCS2(=O)=O)c(F)c1 (centres unmarked) ; assay system hVR1 (Homo sapiens (Human), UniProt Q8NER1); Ki reported as 114

Item `Cc1c(C(F)(F)F)nn(-c2cccc(Cl)c2)c1CNC(=O)Cc1cccc(F)c1` ; assay system hVR1 (Homo sapiens (Human), UniProt Q8NER1); Ki reported as 112

Item CC(C(=O)NCc1cc(C(C)(C)C)nn1-c1cccc(Cl)c1)c1ccc(CNS(C)(=O)=O)c(F)c1 (centres unmarked) ; assay system hVR1 (Homo sapiens (Human), UniProt Q8NER1); Ki reported as 4

Item CC(C(=O)NCc1cc(C(F)(F)F)nn1-c1cccc(Cl)c1)c1ccc(C(=O)Nc2ccc(F)cc2)cc1 (centres unmarked) ; assay system hVR1 (Homo sapiens (Human), UniProt Q8NER1); Ki reported as 0.8

Item CC(C(=O)NCc1cc(C(F)(F)F)nn1-c1ccc(Cl)cc1)c1ccc(NS(C)(=O)=O)c(F)c1 (centres unmarked) ; assay system hVR1 (Homo sapiens (Human), UniProt Q8NER1); Ki reported as 0.3

Item CC(C(=O)NCc1cc(C(C)(C)C)nn1-c1ccc(Cl)cc1)c1ccc(NS(C)(=O)=O)c(F)c1 (centres unmarked) ; assay system hVR1 (Homo sapiens (Human), UniProt Q8NER1); Ki reported as 3.7

Item CC(C(=O)NCc1cc(C(C)(C)C)nn1-c1ccccn1)c1ccc(CNS(C)(=O)=O)c(F)c1 (centres unmarked) ; assay system hVR1 (Homo sapiens (Human), UniProt Q8NER1); Ki reported as 58.1

Item CC(C(=O)NCc1cc(C(F)(F)F)nn1-c1cccc(Cl)c1)c1ccc(C(=O)Nc2ccccc2)c(F)c1 (centres unmarked) ; assay system hVR1 (Homo sapiens (Human), UniProt Q8NER1); Ki reported as 7.2

Item Cc1c(C(F)(F)F)nn(-c2cccc(Cl)c2)c1CNC(=O)C(C)c1ccc(CNS(C)(=O)=O)c(F)c1 (centres unmarked) ; assay system hVR1 (Homo sapiens (Human), UniProt Q8NER1); Ki reported as 2.5

Item `CC(C)(C(=O)NCc1cc(C(F)(F)F)nn1-c1cccc(Cl)c1)c1cccc(F)c1` ; assay system hVR1 (Homo sapiens (Human), UniProt Q8NER1); Ki reported as 56

Item `C[C@H](C(=O)NCc1cc(C(C)(C)C)nn1-c1ccc(Cl)cc1)c1ccc(NS(C)(=O)=O)c(F)c1` ; assay system hVR1 (Homo sapiens (Human), UniProt Q8NER1); Ki reported as 2.1

Item CC(C(=O)NCc1cc(C(C)(C)C)nn1-c1cccc(Cl)c1)c1ccc(NS(C)(=O)=O)c(F)c1 (centres unmarked) ; assay system hVR1 (Homo sapiens (Human), UniProt Q8NER1); Ki reported as 0.3

Item COc1cc(C(C)C(=O)NCc2cc(C(F)(F)F)nn2-c2cccc(Cl)c2)ccc1NS(C)(=O)=O (centres unmarked) ; assay system hVR1 (Homo sapiens (Human), UniProt Q8NER1); Ki reported as 0.4

Item `O=C(Cc1cc(F)c(O)c(F)c1)NCc1cc(C(F)(F)F)nn1-c1cccc(Cl)c1` ; assay system hVR1 (Homo sapiens (Human), UniProt Q8NER1); Ki reported as 26

###

# studyTarget: hVR1 (Homo sapiens (Human))
# protocolNotes: FLIPR Ca2+ influx assay on CHO K1 cells transfected with the VR1 gene, capsaicin stimulus (method II)
# Assay type: cell-based
# measurementContext: CHO-K1, read-out: Ki (human being) Cap column: inhibition (as a percentage) @ 5 μM, capsaicin, inhibition determined at 5 μM
What inhibition at 5 µM was measured for each of the following?
Write the answer as a number in %, unit excluded.

Lookup result for `CN(C(=O)NCc1cc(C(F)(F)F)nn1-c1cccc(Cl)c1)c1cccc(F)c1` ; measured inhibition at 5 µM: 44

Lookup result for `CC(C)(C)c1nc(CNC(=O)Cc2cccc(F)c2)n(-c2cccc(Cl)c2)n1` ; measured inhibition at 5 µM: 24

Lookup result for `CC(C)(C)c1cc(CNC(=O)Cc2cccc(F)c2)n(NCC(F)(F)F)n1` ; measured inhibition at 5 µM: 12

Lookup result for `COc1ccc(Cn2nc(C(F)(F)F)cc2CNC(=O)Cc2cccc(F)c2)cc1` ; measured inhibition at 5 µM: 34

Lookup result for `C[C@H](C(=O)NCc1cc(C(C)(C)C)nn1C)c1ccc(NS(C)(=O)=O)c(F)c1` ; measured inhibition at 5 µM: 9

Lookup result for CC(C(=O)NCc1cc(C(C)(C)C)nn1C)c1ccc(NS(C)(=O)=O)c(F)c1 (stereo not shown) ; measured inhibition at 5 µM: 12

Lookup result for `CCCCCn1nc(C(F)(F)F)cc1CNC(=O)Cc1cccc(F)c1` ; measured inhibition at 5 µM: 58

###

# studyTarget: hVR1 (Homo sapiens (Human), UniProt Q8NER1)
# protocolNotes: FLIPR Ca2+ influx assay on CHO K1 cells transfected with the VR1 gene, capsaicin stimulus (method II)
# Format: cell-based
# Set-up: key: result in words (NE / AG): AG=agonist; pAG=partial agonist; NE=no effect
# measurementContext: capsaicin
property: Ki (human being) Cap: result in words (NE / AG)

Observe how each entry below is paired with its result.
Lookup result for CC(C)(C)c1cc(CNC(=O)Nc2ccc(N3CCOCC3)c(F)c2)n(-c2cccc(Cl)c2)n1 [Example 144] ; measured Ki (human being) Cap: result in words (NE / AG): AG

Lookup result for COc1c(F)cc(NC(=O)NCc2cc(C(C)(C)C)nn2-c2cccc(Cl)c2)cc1F [Example 61] ; measured Ki (human being) Cap: result in words (NE / AG): AG

Lookup result for C[C@H](C(=O)NCc1cc(C(C)(C)C)n[nH]1)c1ccc(NS(C)(=O)=O)c(F)c1 [Example 2] ; measured Ki (human being) Cap: result in words (NE / AG): NE

Lookup result for CC(C(=O)NCc1cc(C(C)(C)C)nn1-c1cccc(Cl)c1)c1ccc(C2CC2)c(F)c1 (centres unmarked) [Example 125] ; measured Ki (human being) Cap: result in words (NE / AG): AG

Lookup result for CC(C(=O)NCc1cc(C(C)(C)C)n[nH]1)c1ccc(NS(C)(=O)=O)c(F)c1 (centres unmarked) [Example 1] ; measured Ki (human being) Cap: result in words (NE / AG): NE

Lookup result for COCCOCc1ccc(C(C)C(=O)NCc2cc(C(C)(C)C)nn2-c2cccc(Cl)c2)cc1F (centres unmarked) [Example 142] ; measured Ki (human being) Cap: result in words (NE / AG): AG

Lookup result for CC(C)(C)c1cc(CNC(=O)C2(c3cccc(F)c3)CC2)n(-c2cccc(Cl)c2)n1 [Example 118] ; measured Ki (human being) Cap: result in words (NE / AG): AG

Lookup result for CC(C)(C)c1cc(CNC(=O)Cc2cccc(F)c2)n(-c2cccc(Cl)c2)n1 [Example 73] ; measured Ki (human being) Cap: result in words (NE / AG): AG

Lookup result for CC(C(=O)NCc1cc(C(C)(C)C)nn1-c1cccc(Cl)c1)c1ccc(S(=O)(=O)N(C)C)c(F)c1 (centres unmarked) [Example 49] ; measured Ki (human being) Cap: result in words (NE / AG): AG

Lookup result for CC(C)(C)c1cc(CNC(=O)Nc2cccc(F)c2)n(-c2ccc(F)cc2)n1 [Example 122] ; measured Ki (human being) Cap: result in words (NE / AG): AG

Continue with the compound presented below.
Lookup result for O=C(NCc1cc(C(F)(F)F)nn1-c1cccc(Cl)c1)Nc1ccc(C#CC2CC2)c(F)c1 [Example 139] ; measured Ki (human being) Cap: result in words (NE / AG): AG

###

# studyTarget: hVR1 (Homo sapiens (Human))
# protocolNotes: FLIPR assay hVR1, after pH stimulus
# Format: cell-based
# Design: key: result in words (NE / AG): AG=agonist; pAG=partial agonist; NE=no effect
property: IC50 (human being) hVR1 pH: result in words (NE / AG)

Lookup result for COc1ccc(-n2nc(C(C)(C)C)cc2CNC(=O)C(C)c2ccc(NS(C)(=O)=O)c(F)c2)cc1 (stereo not drawn) ; measured IC50 (human being) hVR1 pH: result in words (NE / AG): NE

Lookup result for CC(C(=O)NCc1cc(C(C)(C)C)nn1-c1cccc(Cl)c1)c1ccc(N2CCCS2(=O)=O)c(F)c1 (stereo not drawn) ; measured IC50 (human being) hVR1 pH: result in words (NE / AG): NE

Lookup result for CC(C(=O)NCc1cc(C(C)(C)C)nn1-c1cccc(Cl)c1)c1ccc(NS(C)(=O)=O)c(F)c1 (stereo not drawn) ; measured IC50 (human being) hVR1 pH: result in words (NE / AG): NE
